biological target: chymotrypsin (Bos taurus, UniProt P00766); assay: in vitro; details: isolated enzyme chymotrypsin, pH 7.8, Remaining peak area (%)/chymotrypsin
measuredMetric: remaining at 0.025 h, 60 μM (%)
Give just the number in %; leave the unit off.

Response field remaining at 0.025 h, 60 μM (chymotrypsin (Bos taurus, UniProt P00766)) for item CC[C@H](C)[C@H](N)C(=O)N[C@@H](Cc1c[nH]cn1)C(=O)N[C@H](C(=O)N[C@H](C(=O)N[C@H](C(=O)N1CCC[C@H]1C(=O)N[C@@H](C)C(=O)N[C@@H](CC(=O)O)C(=O)N[C@@H](CC(C)C)C(=O)N[C@@H](Cc1c[nH]c2ccccc12)C(=O)N[C@@H](CC(=O)O)C(=O)N[C@@H](Cc1c[nH]c2ccccc12)C(=O)N[C@H](C(=O)N[C@@H](CC(N)=O)C(=O)O)[C@@H](C)CC)[C@@H](C)CC)[C@@H](C)O)C(C)C [17A, reference compound] : 68.8
